- target-entity: T1, mouse CRH receptor 1 (mouse, UniProt P35347 24-415)
- T1 sequence (looked up): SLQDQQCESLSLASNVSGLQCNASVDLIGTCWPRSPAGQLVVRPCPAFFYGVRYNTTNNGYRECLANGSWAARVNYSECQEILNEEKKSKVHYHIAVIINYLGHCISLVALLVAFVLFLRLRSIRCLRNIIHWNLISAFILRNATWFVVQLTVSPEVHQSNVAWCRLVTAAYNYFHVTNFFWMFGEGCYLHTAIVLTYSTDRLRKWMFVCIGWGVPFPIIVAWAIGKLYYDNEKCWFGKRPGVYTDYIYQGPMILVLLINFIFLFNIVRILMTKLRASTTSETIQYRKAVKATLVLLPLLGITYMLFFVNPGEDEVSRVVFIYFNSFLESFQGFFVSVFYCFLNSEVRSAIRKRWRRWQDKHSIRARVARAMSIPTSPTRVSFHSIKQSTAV
- test-method-notes: cell-based or functional assay
Starred links: 1 amine or outer side, 2 acyl side, 3 side chain; linkers in the order of their positions; H or OH if unused. Non-standard residues stand in square brackets, D forms with d. Groups on a side chain read outwards from the residue. No end group written: not given here. *: point of attachment. C20 diacid = O=C(O)CCCCCCCCCCCCCCCCCCC(=O)*; γGlu = O=C(O)[C@H](CCC(=O)[*:2])N[*:1]; NMeI = CC[C@H](C)[C@H](NC)C(=O)O; Nle = CCCC[C@H](N)C(=O)O; lip = not defined here; AEEA = NCCOCCOCC(=O)O; Aib = CC(C)(N)C(=O)O
List of Transient cell system EC50 (nM), mCRHR1; cAMP assay, transiently transfected CHO-K1 cells values.
Only the number, expressed in nM, is required.

1. [NMeI]VLSLDVPIGLLQILLSQARARAAREQAK([AEEA-AEEA-γGlu-γGlu-C20 diacid])TN[Aib]EI[Nle]AEV-NH2 (not fully specified; printed as [MeI]VLSLDVPIGLLQILLSQARARAAREQA[K*]TN[Aib]EI[Nle]AEV(NH_2)) [SEQ ID NO: 215, [MeI]VLSLDVPIGLLQILLSQARARAAREQA[K*]TN[Aib]EI[Nle]AEV(NH2)]: 50

Then there is this binder:
Returns the measured Transient cell system EC50 (nM), mCRHR1; cAMP assay, transiently transfected CHO-K1 cells for the input binder. Input: [NMeI]VLSLDVPIGLLQILLEQARARAAREQAK(lip)TN[Aib]EILAEV-NH2 (reading uncertain; also: printed as [MeI]VLSLDVPIGLLQILLEQARARAAREQA[K*]TN[Aib]EILAEV(NH2)) [SEQ ID NO: 16, [MeI]VLSLDVPIGLLQILLEQARARAAREQA[K*]TN[Aib]EILAEV(NH2)]
76

The measurements presented in this section are drawn from patent EP4810052A2.
